These data points were gathered from the supplement of paper PMC4862054.

// reported normalised response for each item listed
- System: HDQ-P1
- Assay Details: normalised response (% of control), CellTiter-Glo; higher = more viable cells (100 = DMSO, 0 = benzethonium chloride kill control)
- Conditions Used: incubation time: 72 h
Assay Endpoint: normalised response (%)

>>> observed_result("CN1CCc2c(c3ccccc3n2Cc2ccc(C(=O)NO)cc2)C1 [Tubastatin A] (1 nM)")
96.4
>>> observed_result("CO[C@H]1C[C@@H]2CC[C@@H](C)[C@@](O)(O2)C(=O)C(=O)N2CCCC[C@H]2C(=O)O[C@H]([C@H](C)C[C@@H]2CC[C@@H](O)[C@H](OC)C2)CC(=O)[C@H](C)/C=C(\\C)[C@@H](O)[C@@H](OC)C(=O)[C@H](C)C[C@H](C)/C=C/C=C/C=C/1C [Sirolimus] (0.1 nM)")
100
>>> observed_result("C[C@@H]1C[C@H]2[C@@H]3CCC4=CC(=O)C=C[C@]4(C)[C@@]3(F)[C@@H](O)C[C@]2(C)[C@@]1(O)C(=O)CO [Dexamethasone] (1 nM)")
104
>>> observed_result("O=NN(CCCl)C(=O)NC1CCCCC1 [Lomustine] (1000 nM)")
102
>>> observed_result("O=C(O)CC[C@H]1CC[C@@](c2cc(F)ccc2F)(S(=O)(=O)c2ccc(Cl)cc2)CC1 [MK-0752] (1 nM)")
95.6
>>> observed_result("CCCCCOC(=O)Nc1nc(=O)n([C@@H]2O[C@H](C)[C@@H](O)[C@H]2O)cc1F [Capecitabine] (1 nM)")
102
>>> observed_result("CCc1c(C(=O)C(N)=O)c2c(OCC(=O)O)cccc2n1Cc1ccccc1 [Varespladib] (1 nM)")
100
>>> observed_result("NC(=O)NO [Hydroxyurea] (10 nM)")
97.3
>>> observed_result("CC(C)C(=O)Nc1ccc([N+](=O)[O-])c(C(F)(F)F)c1 [Flutamide] (1 nM)")
101
>>> observed_result("Nc1nc(Cl)nc2c1ncn2[C@@H]1O[C@H](CO)[C@@H](O)[C@@H]1F [Clofarabine] (10 nM)")
96.8
>>> observed_result("Cn1nnc2c(C(N)=O)ncn2c1=O [Temozolomide] (10 nM)")
96.7
>>> observed_result("CC(C)C[C@H](NC(=O)[C@H](CCc1ccccc1)NC(=O)CN1CCOCC1)C(=O)N[C@@H](Cc1ccccc1)C(=O)N[C@@H](CC(C)C)C(=O)[C@@]1(C)CO1 [Carfilzomib] (1 nM)")
108
>>> observed_result("CN1CCN(c2nc(C3=C(c4c[nH]c5ccccc45)C(=O)NC3=O)c3ccccc3n2)CC1 [Sotrastaurin] (1000 nM)")
93.5
>>> observed_result("O=C(O)CC[C@H]1CC[C@@](c2cc(F)ccc2F)(S(=O)(=O)c2ccc(Cl)cc2)CC1 [MK-0752] (100 nM)")
95.6
>>> observed_result("Nc1nc(Cl)nc2c1ncn2[C@@H]1O[C@H](CO)[C@@H](O)[C@@H]1F [Clofarabine] (1 nM)")
98.3
>>> observed_result("O=C(c1cc(Cc2n[nH]c(=O)c3ccccc23)ccc1F)N1CCN(C(=O)C2CC2)CC1 [Olaparib] (1 nM)")
95.9
>>> observed_result("CCN(CC)CCOc1ccc(C(=C(Cl)c2ccccc2)c2ccccc2)cc1 [Clomifene] (10 nM)")
100
>>> observed_result("CC(C)NC[C@@H](C(=O)N1CCN(c2ncnc3c2[C@H](C)C[C@H]3O)CC1)c1ccc(Cl)cc1 [GDC-0068] (10 nM)")
96.1
>>> observed_result("Cc1c(N)nc([C@H](CC(N)=O)NC[C@H](N)C(N)=O)nc1C(=O)N[C@H](C(=O)N[C@H](C)[C@@H](O)[C@H](C)C(=O)N[C@H](C(=O)NCCc1nc(-c2nc(C(=O)NCCC[S+](C)C)cs2)cs1)[C@@H](C)O)[C@@H](OC1OC(CO)C(O)C(O)C1OC1OC(CO)C(O)C(OC(N)=O)C1O)c1cnc[nH]1 (stereo partly drawn) [Bleomycin] (10 nM)")
97.6
>>> observed_result("NC1(c2ccc(-c3nc4ccn5c(=O)[nH]nc5c4cc3-c3ccccc3)cc2)CCC1 [MK-2206] (100 nM)")
99.2
>>> observed_result("CCc1cnn2c(NCc3ccc[n+]([O-])c3)cc(N3CCCC[C@H]3CCO)nc12 [Dinaciclib] (1 nM)")
104
>>> observed_result("CC(C)C(=O)Nc1ccc([N+](=O)[O-])c(C(F)(F)F)c1 [Flutamide] (1000 nM)")
101
>>> observed_result("NC1(c2ccc(-c3nc4ccn5c(=O)[nH]nc5c4cc3-c3ccccc3)cc2)CCC1 [MK-2206] (1 nM)")
96.5
>>> observed_result("CN1CCN(c2nc(C3=C(c4c[nH]c5ccccc45)C(=O)NC3=O)c3ccccc3n2)CC1 [Sotrastaurin] (10 nM)")
100
>>> observed_result("NC(=O)NO [Hydroxyurea] (10000 nM)")
100
>>> observed_result("C[C@]12C=CC(=O)C=C1CC[C@@H]1[C@@H]2C(=O)C[C@@]2(C)[C@H]1CC[C@]2(O)C(=O)CO [Prednisone] (10 nM)")
96.3
>>> observed_result("C[C@]12C=CC(=O)C=C1CC[C@@H]1[C@@H]2C(=O)C[C@@]2(C)[C@H]1CC[C@]2(O)C(=O)CO [Prednisone] (1000 nM)")
100
>>> observed_result("CC(C)n1nc(-c2ccc3oc(N)nc3c2)c2c(N)ncnc21 [INK128] (1 nM)")
95.8

* * *

- System: HCC1937
- Assay Details: normalised response (% of control), CellTiter-Glo; higher = more viable cells (100 = DMSO, 0 = benzethonium chloride kill control)
- Conditions Used: incubation time: 72 h
Consider the following compounds and their measured normalised response readings.
Assay Endpoint: normalised response (%)

>>> observed_result("CC(C)C(=O)Nc1ccc([N+](=O)[O-])c(C(F)(F)F)c1 [Flutamide] (1 nM)")
94.7
>>> observed_result("COc1cc(Nc2ncc(F)c(Nc3ccc4c(n3)N(COP(=O)(O)O)C(=O)C(C)(C)O4)n2)cc(OC)c1OC [Fostamatinib] (0.25 nM)")
106
>>> observed_result("CC(C)NC[C@@H](C(=O)N1CCN(c2ncnc3c2[C@H](C)C[C@H]3O)CC1)c1ccc(Cl)cc1 [GDC-0068] (10 nM)")
97
>>> observed_result("CC(C)C(=O)Nc1ccc([N+](=O)[O-])c(C(F)(F)F)c1 [Flutamide] (1000 nM)")
96.2
>>> observed_result("Cn1nnc2c(C(N)=O)ncn2c1=O [Temozolomide] (1000 nM)")
93.9
>>> observed_result("COc1cc2c(cc1-c1c(C)noc1C)ncc1[nH]c(=O)n([C@H](C)c3ccccn3)c12 [I-BET151] (10 nM)")
98.5
>>> observed_result("Cn1cc(C[C@@H](N)C(=O)O)c2ccccc21 [1-methyl-D-tryptophan] (500 nM)")
99.3
>>> observed_result("N[C@@H](Cc1ccc(N(CCCl)CCCl)cc1)C(=O)O [Melphalan] (1.25 nM)")
103

* * *

Listing of recorded normalised response by entry.
- Tested on: MCF-10A
- Assay Details: normalised response (% of control), CellTiter-Glo; higher = more viable cells (100 = DMSO, 0 = benzethonium chloride kill control)
- Conditions Used: incubation time: 72 h
Assay Endpoint: normalised response (%)

>>> observed_result("CCCc1cc(C)[nH]c(=O)c1CNC(=O)c1cc(-c2ccnc(N3CCN(C)CC3)c2)cc2c1cnn2C(C)C [GSK343] (10 nM)")
103
>>> observed_result("CC[C@H](CC#N)OC(=O)N[C@@H](C)c1cccc(NC(=O)Nc2ccc(-c3cnco3)c(OC)c2)c1 [AVN944] (10 nM)")
99.7
>>> observed_result("COc1cc2c(N3CCN(C(=O)Nc4ccc(OC(C)C)cc4)CC3)ncnc2cc1OCCCN1CCCCC1 [Tandutinib] (0.1 nM)")
95.5
>>> observed_result("C[C@]12C=CC(=O)C=C1CC[C@@H]1[C@@H]2C(=O)C[C@@]2(C)[C@H]1CC[C@]2(O)C(=O)CO [Prednisone] (1 nM)")
98.2
>>> observed_result("CC/C(=C(\\c1ccccc1)c1ccc(OCCN(C)C)cc1)c1ccccc1 [Tamoxifen] (10 nM)")
112
>>> observed_result("COc1cc2c(N3CCN(C(=O)Nc4ccc(OC(C)C)cc4)CC3)ncnc2cc1OCCCN1CCCCC1 [Tandutinib] (1 nM)")
99.8
>>> observed_result("COc1cc2c(Oc3ccc(NC(=O)C4(C(=O)Nc5ccc(F)cc5)CC4)cc3F)ccnc2cc1OCCCN1CCOCC1 [Foretinib] (100 nM)")
95.1
>>> observed_result("C[C@@H]1C[C@H]2[C@@H]3CCC4=CC(=O)C=C[C@]4(C)[C@@]3(F)[C@@H](O)C[C@]2(C)[C@@]1(O)C(=O)CO [Dexamethasone] (1 nM)")
90
>>> observed_result("CN1CCc2c(c3ccccc3n2Cc2ccc(C(=O)NO)cc2)C1 [Tubastatin A] (10 nM)")
101
>>> observed_result("CO[C@H](C(=O)[C@@H](O)[C@@H](C)O)[C@@H]1Cc2cc3cc(O[C@H]4C[C@@H](O[C@@H]5C[C@@H](O)[C@H](O)[C@@H](C)O5)[C@H](O)[C@@H](C)O4)c(C)c(O)c3c(O)c2C(=O)[C@H]1O[C@H]1C[C@@H](O[C@@H]2C[C@@H](O)[C@@H](O[C@@H]3C[C@](C)(O)[C@H](O)[C@@H](C)O3)[C@@H](C)O2)[C@H](O)[C@@H](C)O1 [Plicamycin] (1000 nM)")
110
>>> observed_result("CCc1c(C(=O)C(N)=O)c2c(OCC(=O)O)cccc2n1Cc1ccccc1 [Varespladib] (1000 nM)")
104
>>> observed_result("COc1cc2c(cc1-c1c(C)noc1C)ncc1[nH]c(=O)n([C@H](C)c3ccccn3)c12 [I-BET151] (1000 nM)")
74
>>> observed_result("COc1cc2c(N3CCN(C(=O)Nc4ccc(OC(C)C)cc4)CC3)ncnc2cc1OCCCN1CCCCC1 [Tandutinib] (100 nM)")
96.6
